Tested on: NCI-H460 lung
Assay: NCI tumour cell line growth inhibition, 48 h
Where a SMILES comes first, the peptide text is derived from it. The star is where a group is joined. Boc = CC(C)(C)OC(=O)*; OBn = c1ccc(CO*)cc1
Endpoint Name: TGI

Challenge: API: value(readout= TGI, system= NCI-H460 lung, query= NC(=O)[C@@H](CC1CC1)[C@@H](CCC(F)(F)F)C(=O)N[C@H]1N=C(c2ccccc2)c2cccc(F)c2NC1=O )
Response given: > 100 µM

Challenge: Test system NCI-H460 lung; read-out TGI; what value for CC(C)CC(NC(=O)OC(C)(C)C)C(=O)NC(CC(=O)OCc1ccccc1)C(=O)OCc1ccccc1 (stereo not drawn) (Boc-Leu-Asp(OBn)-OBn; configuration not given here) ?
Response given: > 100 µM

Challenge: Under NCI-H460 lung: TGI value of COC(=O)c1c(C)cccc1C1CN=NC12Cc1ccc(C)c(C)c1C2=O (stereo not given) ?
Response given: > 100 µM

Challenge: Form: Entry = NNc1cnn(-c2ccccc2)c(=O)c1Cl | System = NCI-H460 lung | TGI = ____
Response given: > 100 µM

Challenge: Observed TGI on NCI-H460 lung for CC(C)(O)/C=C/C(=O)[C@](C)(O)[C@H]1[C@H](O)C[C@@]2(C)[C@@H]3CC=C4[C@@H](C[C@H](O)C(=O)C4(C)C)[C@]3(C)C(=O)C[C@]12C , please.
Response given: 20.4 µM

====

Tested on: M14 melanoma
Test: NCI tumour cell line growth inhibition, 48 h
Endpoint Name: TGI

Challenge: What measured TGI goes with COC(=O)C1C(=O)CC2CCCCC21 (centres undefined) ?
Response given: > 100 µM

Challenge: GET /values?readout=TGI&item= NS(=O)(=O)c1ccc(N=Nc2c(O)[nH]c3ccc(C(=O)NCc4ccncc4)cc23)cc1
Response given: > 25 µM

Challenge: Value lookup for TGI; key = CC(C)(C)CC(C)(C)NC(=S)NO
Response given: > 100 µM

Challenge: Recorded TGI of CCCC1C(=O)Nc2cccc3ncn(c23)C1=O (centres undefined) , please.
Response given: > 100 µM

Challenge: # query: TGI of entry O=[N+]([O-])c1cccc(-c2nc(-c3ccccc3)c(-c3ccccc3)[nH]2)c1
Response given: > 100 µM

Challenge: What value of TGI has been recorded for this entry: COC(=O)C(=O)C(C(=O)C(=O)Nc1cccc([N+](=O)[O-])c1)c1nc2ccc(Cl)cc2[nH]c1=O (centres undefined)
Response given: > 100 µM

Challenge: Can you look up the measured TGI of CNNC(=N\S(=O)(=O)c1cc(C)c(Cl)cc1SCc1ccccc1)/N=C/c1ccc([N+](=O)[O-])s1 for me?
Response given: > 78.5 µM

Challenge: What value of TGI has been reported for the following molecule? COC(=O)C1=C(CS(=O)c2ccc([N+](=O)[O-])cc2[N+](=O)[O-])C2C=CC1C2 (centres undefined)
Response given: > 100 µM

Challenge: # lookup: TGI of CCc1cccc(C)c1NC(=O)CCc1nnc2s/c(=C\c3cccc4ccccc34)c(=O)n12
Response given: > 100 µM

Challenge: Param item = CC1CN(S(=O)(=O)c2oc(-c3ccc(Cl)cc3)nc2C#N)CC(C)O1 (centres undefined) ; retrieve measured TGI.
Response given: 3.39 µM

Challenge: I am curious: what TGI value has been reported for CCOc1ccc(/C(C=O)=C(\Cl)c2ccc(OC)cc2)cc1 ?
Response given: > 100 µM

Challenge: Suppose we examine the molecule CCOC(=O)c1c(C)n(Cc2ccc(Cl)cc2Cl)c2c1cc1oc(=O)c(=O)n3cnc2c13 ; what TGI value has been reported?
Response given: 41.6 µM

Challenge: I would be grateful if you could share the reported TGI for C=C/C(C)=C/C[C@]1(C)[C@H](C)[C@@H](OC(=O)CCC)[C@H](O)[C@@]23C(=C[C@H](OC)C[C@@H]12)[C@@H](OC(=O)CCC)O[C@H]3OC(C)=O .
Response given: 2.55 µM

Challenge: Report TGI for CS[C@]12[C@@H]3C(=O)N(C)C(=O)[C@@H]3[C@](C)(C(=O)N1C)C(=O)N2c1ccccc1 please.
Response given: > 100 µM
